Consider the following pIC50 data for Insulin-like growth factor 1 receptor (Homo sapiens, UniProt P08069), collected from several reports.
pIC50: −log10 of the molar value.
Note to self: values exactly at 5 are rule met. So pIC50 at or above 5 is rule met, below is rule not met.

Ask: Test whether the compound CNc1nccc(-c2cccnc2Oc2ccc(Nc3nnc(-c4ccc(F)cc4)c4ccccc34)cc2)n1 records pIC50 of 5 or higher.
Reply: rule not met

Ask: Does CC(C)(C)c1cc(/C=C2\C(=O)Nc3ccccc32)cc(C(C)(C)C)c1O have a reported pIC50 of at least 5?
Reply: rule not met

Ask: Determine whether this compound has pIC50 no lower than 5: COc1cc(-c2cnn(C3CCNCC3)c2)ccc1Nc1ncc(Cl)c(Nc2ccccc2P(C)(C)=O)n1
Reply: rule met

Ask: For this compound, is measured pIC50 5 or higher? COc1ccc(CCNC(=O)C(=O)c2c[nH]c3ccccc23)cc1OC
Reply: rule not met

Ask: Does the reported pIC50 for O=C(Nc1ccc(Cl)cc1)c1ccccc1NCc1ccncc1 fall at or above the 5 mark?
Reply: rule not met

Ask: Threshold query (pIC50 >= 5) on O=C1Nc2ccccc2/C1=C/c1cc(Br)cs1
Reply: rule not met

Ask: Would you say CNc1ncnc(-c2cccnc2Oc2ccc(F)c(C(=O)Nc3cc(C(F)(F)F)ccc3N(C)CCCN(C)C)c2)n1 shows pIC50 at minimum 5?
Reply: rule met

Ask: Check this compound for pIC50 at or above 5: Cc1c(O)c(O)c(O)c2c1COC2=O
Reply: rule met

Ask: Check if pIC50 >= 5 (inclusive). Item: CCOc1cc(/C=C2/SC(=O)NC2=O)cc(Cl)c1OCC
Reply: rule not met

Ask: Tell me whether pIC50 is at least 5 here: Fc1cc(-c2nc3ccccc3s2)ccc1Nc1ncnc2ccsc12
Reply: rule not met

Ask: Kindly determine if pIC50 recorded for O=C(O)c1cc(-c2ccc(/C=N/Nc3nc4nonc4nc3Nc3ccccc3)o2)ccc1Cl is above or exactly 5.
Reply: rule met

Ask: Record COc1c(Br)cc(/C=C2\C(=O)Nc3ccc(Cl)cc32)cc1C(C)(C)C ; criterion: pIC50 no lower than 5. Met?
Reply: rule not met

Ask: Does the reported pIC50 for Cc1cc(Nc2nc(Nc3ccccc3S(=O)(=O)C(C)C)c3c(C)[nH]nc3n2)c(OC(C)C)cc1C1CCN(C)CC1 fall at or above the 5 mark?
Reply: rule met

Ask: Please check the record CONC(=O)c1cc(Nc2ncnn3cc(NC(=O)OCC4CCCO4)c(C(C)C)c23)c(F)cc1F (configuration not stated) and state if its pIC50 is at or above 5.
Reply: rule not met

Ask: Check if pIC50 >= 5 (inclusive). Item: CN1CCN(Cc2ccc(NC(=O)c3cc(-c4ccc5c(c4)OCO5)cnc3O)cc2)CC1
Reply: rule not met

Ask: Please check the record O=C(NNc1ccc(I)cc1)C(=O)c1c[nH]c2ccccc12 and state if its pIC50 is at or above 5.
Reply: rule not met
